Reference source: patent EP0908457B1

Each entry below lists one item and its recorded herbicidal effect rating ORYSAT value.
tested on: Oryza sativa, (L.) Tebonnet; assay: Rice tolerance to post-transplant applications under flooded paddy conditions (Example 187), ORYSAT (Rice, Tebonnet); settings: Rate 0.1250 kg/ha, rated three to four weeks after treatment; further: meaning of each grade not given here
Kindly provide the number alone.

Please review the following examples before continuing.
| compound | herbicidal effect rating ORYSAT |
| --- | --- |
| Cn1c(C(F)(F)F)cc(=O)n(-c2ccc3snc(C(=O)NS(=O)(=O)CCl)c3c2)c1=O [Example 324] | 7.0 |
| COc1ccc(OC)c(-c2nsc3ccc(-n4c(=O)cc(C(F)(F)F)n(C)c4=O)cc23)c1 | 7.0 |
| Cn1c(C(F)(F)F)cc(=O)n(-c2ccc3snc(C(Cl)Br)c3c2)c1=O (stereo not shown) | 4.0 |

Per the reported Oryza sativa, (L.) Tebonnet data, CC(C)C=C(C#N)c1nsc2ccc(-n3c(=O)cc(C(F)(F)F)n(C)c3=O)cc12 has herbicidal effect rating ORYSAT of 4.0

Per the reported Oryza sativa, (L.) Tebonnet data, Cn1c(C(F)(F)F)cc(=O)n(-c2ccc3snc(C(C#N)=Cc4cnc[nH]4)c3c2)c1=O has herbicidal effect rating ORYSAT of 0.0

Per the reported Oryza sativa, (L.) Tebonnet data, Cn1c(C(F)(F)F)cc(=O)n(-c2ccc3snc(CSCC(=O)NS(C)(=O)=O)c3c2)c1=O has herbicidal effect rating ORYSAT of 0.0

Per the reported Oryza sativa, (L.) Tebonnet data, CNC.Cn1c(C(F)(F)F)cc(=O)n(-c2ccc3snc(CSCC(=O)O)c3c2)c1=O has herbicidal effect rating ORYSAT of 3.0
